Target: HLA-A*02:01
Assay: IEDB peptide-MHC binding, purified MHC/competitive/radioactivity; bounds were set here for any values at or beyond the usual limits of such assays
Details: source organism: Vaccinia virus WR
pIC50: −log10 of the molar value.

SEQUENCE_CHAIN: ILYDNVVTL
SYSTEM_NAME: HLA-A*02:01
pIC50: 9.29
//
SEQUENCE_CHAIN: QLMYDIINSV
SYSTEM_NAME: HLA-A*02:01
pIC50: 9.11
//
SEQUENCE_CHAIN: IMTSTRTIIL
SYSTEM_NAME: HLA-A*02:01
pIC50: 6.27
//
SEQUENCE_CHAIN: KVTRFYFNM
SYSTEM_NAME: HLA-A*02:01
pIC50: 7.02
//
SEQUENCE_CHAIN: IMYTYFSNT
SYSTEM_NAME: HLA-A*02:01
pIC50: 7.24
//
SEQUENCE_CHAIN: ILVCYILYI
SYSTEM_NAME: HLA-A*02:01
pIC50: 7.72
//
SEQUENCE_CHAIN: YIIDWMVDI
SYSTEM_NAME: HLA-A*02:01
pIC50: 9.04
//
SEQUENCE_CHAIN: YVMTMILFL
SYSTEM_NAME: HLA-A*02:01
pIC50: 10.19
//
SEQUENCE_CHAIN: YLVSSLSEI
SYSTEM_NAME: HLA-A*02:01
pIC50: 8.19
//
SEQUENCE_CHAIN: NVYPGVWNT
SYSTEM_NAME: HLA-A*02:01
pIC50: 6.08
//
SEQUENCE_CHAIN: AMFTAALNI
SYSTEM_NAME: HLA-A*02:01
pIC50: 8.62
//
SEQUENCE_CHAIN: PISDYSAEV
SYSTEM_NAME: HLA-A*02:01
pIC50: 5.98
//
SEQUENCE_CHAIN: PMLYQLLEAV
SYSTEM_NAME: HLA-A*02:01
pIC50: 5.96
//
SEQUENCE_CHAIN: TINCDVGYEV
SYSTEM_NAME: HLA-A*02:01
pIC50: 6.41
//
SEQUENCE_CHAIN: YLAIPDLYGI
SYSTEM_NAME: HLA-A*02:01
pIC50: 8.09

---

Quick reference: pIC50 of the listed items.
Biological target: HLA-A*02:06
Experiment: IEDB peptide-MHC binding, purified MHC/competitive/radioactivity; bounds were set here for any values at or beyond the usual limits of such assays
Conditions: source organism: Vaccinia virus WR
pIC50: −log10 of the molar value.

SEQUENCE_CHAIN: LIYRQLTSNV
SYSTEM_NAME: HLA-A*02:06
pIC50: 6.77

SEQUENCE_CHAIN: MAAAKTPVIV
SYSTEM_NAME: HLA-A*02:06
pIC50: 5.44

SEQUENCE_CHAIN: VMYAFTTPL
SYSTEM_NAME: HLA-A*02:06
pIC50: 8.24

SEQUENCE_CHAIN: VLLPFYETL
SYSTEM_NAME: HLA-A*02:06
pIC50: 6.66

SEQUENCE_CHAIN: IMRNFLRSIA
SYSTEM_NAME: HLA-A*02:06
pIC50: 6.26

SEQUENCE_CHAIN: FIDRGSIKI
SYSTEM_NAME: HLA-A*02:06
pIC50: 5.40

SEQUENCE_CHAIN: LLKCVSDSWL
SYSTEM_NAME: HLA-A*02:06
pIC50: 5.33

SEQUENCE_CHAIN: AISYCRAFI
SYSTEM_NAME: HLA-A*02:06
pIC50: 6.84
